# System: HS 578T breast
# protocol_description: NCI-60 one-dose screen, 48 h
# settings: 10 µM unless noted
The panel holds about 83,000 compounds, 20% with a hit somewhere; the sample as a whole holds those more often. The source made the active and inactive calls. Rule for the calls: active = growth percent below 10; inactive = the rest.
API: response.call in 1 (yes) (active), 0 (no) (inactive)

Below are worked cases with known answers.
COc1cc(-c2c(C#N)c(-c3cccs3)nc3c2c(-c2ccccc2)nn3-c2ccccc2)ccc1O: 0 (no)
CC1(C)[C@@H](O)CC[C@]2(C)[C@H]3CC[C@@H]4[C@H]5[C@H](C(=O)/C=C/c6ccc(C(F)(F)F)cc6)CC[C@]5(CO)CC[C@@]4(C)[C@]3(C)CC[C@@H]12: 0 (no)
CCCCC[C@H]1C/C=C2/C(=O)C(Cl)=C[C@@H]2C/C=C\CCCC(=O)O[C@@H](CCCCC)C/C=C2/C(=O)C(Cl)=C[C@@H]2C/C=C\CCCC(=O)O1: 0 (no)
N#C/C(=C\c1ccc(-c2cccc(C(F)(F)F)c2)o1)c1nc(-c2ccco2)cs1: 0 (no)
Cc1ccc(-c2ccc(/C=C(\C#N)c3nc(-c4ccco4)cs3)o2)cc1: 0 (no)
CN(C)c1ccc(N=C2C=CC(=O)C=C2)cc1: 0 (no)
c1ccc2[nH]c(-c3ccc(Nc4nc(N5CCCCC5)nc(N5CCOCC5)n4)cc3)nc2c1: 1 (yes)
CN1CCN(c2ccc3nc(-c4[nH]ncc4Nc4ncnc5[nH]ccc45)[nH]c3c2)CC1: 0 (no)
Fc1ccc(Nc2nc(Nc3ccc(-c4nc5ccccc5[nH]4)cc3)nc(N3CCCC3)n2)cc1: 0 (no)
CC(C)=CCC/C(C)=C/CC/C(C)=C/CC/C(C)=C/CSC[C@H](NC(=O)CCCCCN1CCN(C)CC1)C(=O)NC1CCCCC1: 0 (no)

*Q* Outcome logged for N#CC1=C(N)Oc2ccc3ccccc3c2C1c1ccccc1Cl (configuration not stated) in this assay:
*A* 0 (no)

*Q* Same lookup for `NC1=NN(c2ccccc2)C(=O)/C1=C/c1ccc(Cl)cc1` , please.
*A* 0 (no)

*Q* Same lookup for `N#C/C(=C\c1ccc(-c2ccc(Br)cc2)o1)c1nc(-c2cccs2)cs1` , please.
*A* 0 (no)

*Q* Same lookup for `Nc1c(C(=O)Nc2cccc3ccccc23)sc2nc3c(cc12)CCCC3` , please.
*A* 0 (no)

*Q* Same lookup for `N#Cc1cnc2cc(OC[C@@H](O)CO)c(NC(=O)CC3CSSC3)cc2c1Nc1ccc(OCc2cccc(F)c2)c(Cl)c1` , please.
*A* 1 (yes)

*Q* Same lookup for `Cc1csc(Nc2nc(-c3ccc(Cl)cc3)nc(C(Cl)(Cl)Cl)n2)n1` , please.
*A* 0 (no)

*Q* Same lookup for `Cn1cc(-c2csc(-c3cn(CCN)c4ccccc34)n2)c2cccnc21` , please.
*A* 0 (no)

*Q* Same lookup for CCCCCC1CCCCN1C(=O)OCC (configuration not stated) , please.
*A* 0 (no)
